# Test: growth inhibitors of H69AR lung tumor, primary screen, human, duplicate replicates (AID 580);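 further: 100% = mean luminescence of untreated wells and 0% = no signal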
# Stated conditions: H69AR lung tumor cells viability, ATP luminescence, 72 h; at 10 µM; stronger effect = lower value
Measured property: viability (%)
Dear colleague, please return just the value in %, with no unit written.

Reference set, count: 10
COc1ccc([C@@H]2Sc3ccccc3N(CCN(C)C)C(=O)[C@@H]2OC(C)=O)cc1	92.1
CCS(=O)(=O)c1nc2ccccc2n1CC(=O)N1CCCCC1	80.4
CCCc1ccc(S(=O)(=O)NCCc2ccncc2)cc1	106
CO[C@@]1(NC(=O)CSCC#N)C(=O)N2C(C(=O)O)=C(CSc3nnnn3C)CS[C@@H]21	95
CCOc1cc(S(=O)(=O)Nc2ccccn2)ccc1F	101
CC1CN(c2nc(-c3ccccc3)nc3ccccc23)CC(C)O1 (stereo unspecified)	85.4
CC(C)CCNC(=O)NC(=O)CSc1nnc(COc2ccccc2Cl)o1	93
COc1ccc(NS(=O)(=O)c2c(C)[nH]c(=O)[nH]c2=O)c(OC)c1	90.8
Cc1nc2ccc(NC(=O)N3CCSCC3)cc2s1	94.3
COc1ccc(NC(=O)CCS(=O)(=O)c2ccc(OC)cc2)cc1	83.4

Param item = CC1=C(C(=O)NC2CCC(C)CC2)C2(CCC(C)CC2)OC1=O (stereo unspecified) ; retrieve measured viability.
90.4

----------
# Test: reversal of MRP1-mediated doxorubicin resistance, pilot screen, H69AR cells, doxorubicin co-treatment (AID 601)
# Stated conditions: H69AR cells, CellTiter-Glo, 72 h; compound alone cytotoxicity; at 10 µM
Parameter viability: see the listing below.
Dear colleague, please return just the value in %, with no unit written.

Cc1cc(C)n2nc(C(=O)NCc3ccco3)nc2n1	99

Param item = `C=CCn1c(SCC(=O)NC23CC4CC(CC(C4)C2)C3)nc(O)cc1=O` ; retrieve measured viability.
92.9

Param item = `Cc1ccc2ncnc(NCCCN3CCOCC3)c2c1` ; retrieve measured viability.
101

Param item = `O=C(CSc1nnc2sc3ccccc3n12)c1ccco1` ; retrieve measured viability.
102

Param item = `O=C(CSc1nnc(COc2ccc(Cl)cc2)o1)N1CCN(c2ccccc2)CC1` ; retrieve measured viability.
90.2

Param item = CCSc1nnc(NC(=O)C2CCCN(S(=O)(=O)c3cnc[nH]3)C2)s1 (stereo unspecified) ; retrieve measured viability.
91.3

Param item = O=S(=O)(c1ccc(OCC(O)CN2CCC(Cc3ccccc3)CC2)cc1)N1CCOCC1 (stereo unspecified) ; retrieve measured viability.
84.8

Param item = `O=C(CNC1CCCCCC1)Nc1ccc(S(=O)(=O)NC2CC2)cc1` ; retrieve measured viability.
93.7

Param item = `CN(C)S(=O)(=O)Nc1ccc(Br)cc1F` ; retrieve measured viability.
102

----------
# Test: growth suppression of beta-catenin knockout HCT116, pilot screen, human colon tumor cells (AID 823);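 further: 0% = wells killed by 20 µM Hyamine and 100% = untreated DMSO cell wells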
# Stated conditions: CellTiter-Glo, 60 h, at 10 µM
Inconclusive results are not listed. Calls of active or inactive are those of the source.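 Rule for the calls: active = cell viability at or below a set limit in both duplicate runs, the limit being the all-compound median minus 4 SD (cut at about 23% in these data, passing the limit was not always enough); inconclusive = no clear call, values can overlap the other calls; inactive = the rest.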
Pick one: T (active), F (inactive)

Reference set, count: 5
C(=N\c1nccs1)/c1c[nH]c2ccccc12	F
CCN1C(=O)CSc2ccc(C(=O)OC)cc21	F
COC1CCCCC1NS(=O)(=O)c1ccc(Cl)cc1 (configuration not stated)	F
Nc1cc(-c2cccc(F)c2)nn1S(=O)(=O)c1cccc2nsnc12	F
COCc1cc(=O)n2c(-c3ccccc3OC)n[nH]c2n1	F

// param item: `COC(=O)c1ccc(C)c(NS(=O)(=O)c2ccc(OC)cc2)c1` ; yields the recorded call
T

// param item: `CCCSc1n[nH]c(NC(C)=O)n1` ; yields the recorded call
F

----------
# Test: RAM signaling pathway blockade in yeast – S. cerevisiae, Pdr1DBD-CYC8 efflux-inhibited sensitized strain, primary screen (AID 1298);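 further: 0% = DMSO untreated cells without growth and 100% = 10 µM 1-NA-PP1 full growth; higher means more yeast growth rescued from 5-FOA killing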
# Stated conditions: S. cerevisiae cbk1-as DSE1-URA3 strain, 5-FOA growth OD615, 2 d; at 50 µM; stronger effect = higher value
Could you label it Satisfied if measured RAM network inhibition is 2% or higher, and Not satisfied otherwise?

COc1ccccc1C1C=C(c2ccccc2)Nc2nnnn21 (stereo unspecified)	Satisfied
CCOC(=O)N1CCN(C(=O)CS(=O)Cc2nc(-c3cccc(C)c3)oc2C)CC1 (stereo unspecified)	Not satisfied
COc1ccc(Cn2nnc3c(=O)[nH]c(C4CCCN(C(=O)c5ccccc5)C4)nc32)cc1 (stereo unspecified)	Satisfied
C=C(C)Cn1c(CCNC(=O)C(C)(C)C)nc2ccccc21	Not satisfied
COc1ccc(NC(=O)N(CCCN2CCOCC2)Cc2cccnc2)c(OC)c1	Not satisfied
Oc1c(C(c2cccs2)N2CCN(c3ccccc3)CC2)sc2ncnn12 (stereo unspecified)	Not satisfied
COc1ccc(CNc2oc(COc3ccccc3)nc2C#N)cc1	Satisfied
COc1ccc(-c2noc(-c3ccccc3F)n2)cc1	Satisfied
O=C(NCCn1ccc2ccccc21)c1ccc(S(=O)(=O)N2CCOCC2)cc1	Satisfied
Cn1ccnc1SCC(=O)Nc1cccc(C(F)(F)F)c1	Satisfied

Would you kindly look at the next entry?
# bool: RAM network inhibition of `O=C1C(=C2CCCCC2)SC(=S)N1Cc1ccco1` >= 2%
Satisfied

----------
Parameter RAM network inhibition: see the listing below.
# Test: RAM signaling pathway blockade in yeast – S. cerevisiae, Pdr1DBD-CYC8 efflux-inhibited sensitized strain, primary screen (AID 1298);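 further: 0% = DMSO untreated cells without growth and 100% = 10 µM 1-NA-PP1 full growth; higher means more yeast growth rescued from 5-FOA killing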
# Stated conditions: S. cerevisiae cbk1-as DSE1-URA3 strain, 5-FOA growth OD615, 2 d; at 50 µM; stronger effect = higher value
Activity calls are given as the source filed them.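 Rule for the calls: active = RAM network inhibition above 8.4% in each of two replicates, 3 SD over the compound average; inconclusive = above 8.4% inhibition in only one replicate; inactive = 8.4% inhibition or less in each replicate.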

O=C(C1Cc2ccccc2O1)N1CCCCC1 (stereo not drawn)	4.37% (inactive)
CC1(C)CC(=O)c2cc(C(=O)N3CCN(CCO)CC3)c(=O)n(-c3ccc(Cl)cc3)c2C1	3.06% (inactive)
O=C1c2ccccc2NC(c2ccccc2)N1c1ccc(O)cc1 (stereo not drawn)	1.89% (inactive)
Cc1nc2sc(C(c3ccco3)N3CCN(c4ccc(F)cc4)CC3)c(O)n2n1 (stereo not drawn)	3.54% (inactive)
O=C(CN1CCCCC1)Nc1ccc(F)c(Cl)c1	-0.11% (inactive)

Param item = O=C(O)C1CCCCC1C(=O)NCc1cn2ccccc2n1 (stereo not drawn) ; retrieve measured RAM network inhibition.
9.11% (inactive)

Param item = CCOC(=O)c1ccc(NC(=O)C23CCC(C)(C(=O)O2)C3(C)C)cc1 (stereo not drawn) ; retrieve measured RAM network inhibition.
5.33% (inactive)

----------
# Test: Restrictive medium S. cerevisiae growth inhibition, OD615, pilot screen of yeast lifespan reduction project, restrictive growth control (AID 706);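 further: modified DeaD lifespan yeast strain shifted to restrictive glucose medium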
# Stated conditions: OD615, 48 h, at 10 µM, stronger effect = higher value
Measured property: growth inhibition (%)
Dear colleague, please return just the value in %, with no unit written.

CC1CCCC(C)N1C(=O)Cn1c(=O)sc2ccccc21 (stereo not drawn)	8.62
O=C(CSc1nc(-c2ccco2)cc(C(F)(F)F)n1)Nc1ccc(C(=O)N2CCCCC2)cc1	-0.65
Cc1cc(NC(=O)CSc2ccc3nnc(-c4ccccn4)n3n2)no1	10.1
Cc1onc(-c2ccccc2)c1C(=O)Nc1cccc(C#N)c1	-6.79
O=C(CCS(=O)(=O)c1cccc2nsnc12)N1CCN(C(=O)c2ccco2)CC1	-12.5
S=c1nc(-c2ccccc2)n(CCCN2CCOCC2)c2c1CCCC2	23.8
C=CCC1(O)C(=O)N2C(=C1C(=O)N1CCOCC1)c1ccccc1CC2(C)C (stereo not drawn)	-8.41
COc1ccc(CCNc2oc(-c3ccc(C)cc3)nc2C#N)cc1OC	-13.3

Param item = CN(CC1CCCO1)S(=O)(=O)c1ccc(C(=O)Nc2nc(-c3ccccn3)cs2)cc1 (stereo not drawn) ; retrieve measured growth inhibition.
-14.7

----------
# Test: Restrictive medium S. cerevisiae growth inhibition, OD615, pilot screen of yeast lifespan reduction project, restrictive growth control (AID 706);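 further: modified DeaD lifespan yeast strain shifted to restrictive glucose medium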
# Stated conditions: OD615, 48 h, at 10 µM, stronger effect = higher value
Parameter growth inhibition: see the listing below.
Dear colleague, please return just the value in %, with no unit written.

Param item = `O=C(c1ccccc1)c1ccc2nc(N3CCCCC3)c3nncn3c2c1` ; retrieve measured growth inhibition.
57.7

Param item = `O=C(COCCOCC(=O)N(c1ccccn1)C1CCCCC1)N(c1ccccn1)C1CCCCC1` ; retrieve measured growth inhibition.
-7.35

Param item = `Oc1ccc(-c2nc3cnccn3c2Nc2ccc3c(c2)OCCO3)cc1` ; retrieve measured growth inhibition.
6.18

Param item = O=C1CC(c2nc3ccccc3[nH]2)CN1c1ccccc1F (stereo unspecified) ; retrieve measured growth inhibition.
-1.12

Param item = OC(C#CCN1CCOCC1)c1cccs1 (stereo unspecified) ; retrieve measured growth inhibition.
2.95

Param item = `COc1ccc(OC)c(N(CC(=O)Nc2ccc3c(c2)OCO3)S(=O)(=O)c2ccccc2)c1` ; retrieve measured growth inhibition.
-2.2

----------
# Test: Restrictive medium S. cerevisiae growth inhibition, OD615, pilot screen of yeast lifespan reduction project, restrictive growth control (AID 706);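 further: modified DeaD lifespan yeast strain shifted to restrictive glucose medium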
# Stated conditions: OD615, 48 h, at 10 µM, stronger effect = higher value
Parameter growth inhibition: see the listing below.
Dear colleague, please return just the value in %, with no unit written.

CC(C)CN(CC(C)C)c1nnc(N)s1	2.1
CC(c1ccccc1F)n1cc(C(=O)NCCc2ccco2)nn1 (stereo unspecified)	-9.79

Param item = Cc1ccc(CC(CC(=O)O)C(=O)NC2CCCCC2)cc1 (stereo unspecified) ; retrieve measured growth inhibition.
-0.295

Param item = CC(=O)C1=C(C)NC(SCC(=O)c2ccccc2)=C(C#N)C1c1ccco1 (stereo unspecified) ; retrieve measured growth inhibition.
21.2

Param item = `Cn1c(Cn2c(=O)sc3ccccc32)nnc1SCC(=O)NCc1ccccc1Cl` ; retrieve measured growth inhibition.
-13.9

Param item = `COc1ccc(N(CC(=O)NCc2ccc3c(c2)OCO3)S(=O)(=O)c2c(C)nn(C)c2C)cc1` ; retrieve measured growth inhibition.
-3.47
